# tested on: EPHB2 (UniProt P29323)
# Sequence (P29323 whole entry, looked up): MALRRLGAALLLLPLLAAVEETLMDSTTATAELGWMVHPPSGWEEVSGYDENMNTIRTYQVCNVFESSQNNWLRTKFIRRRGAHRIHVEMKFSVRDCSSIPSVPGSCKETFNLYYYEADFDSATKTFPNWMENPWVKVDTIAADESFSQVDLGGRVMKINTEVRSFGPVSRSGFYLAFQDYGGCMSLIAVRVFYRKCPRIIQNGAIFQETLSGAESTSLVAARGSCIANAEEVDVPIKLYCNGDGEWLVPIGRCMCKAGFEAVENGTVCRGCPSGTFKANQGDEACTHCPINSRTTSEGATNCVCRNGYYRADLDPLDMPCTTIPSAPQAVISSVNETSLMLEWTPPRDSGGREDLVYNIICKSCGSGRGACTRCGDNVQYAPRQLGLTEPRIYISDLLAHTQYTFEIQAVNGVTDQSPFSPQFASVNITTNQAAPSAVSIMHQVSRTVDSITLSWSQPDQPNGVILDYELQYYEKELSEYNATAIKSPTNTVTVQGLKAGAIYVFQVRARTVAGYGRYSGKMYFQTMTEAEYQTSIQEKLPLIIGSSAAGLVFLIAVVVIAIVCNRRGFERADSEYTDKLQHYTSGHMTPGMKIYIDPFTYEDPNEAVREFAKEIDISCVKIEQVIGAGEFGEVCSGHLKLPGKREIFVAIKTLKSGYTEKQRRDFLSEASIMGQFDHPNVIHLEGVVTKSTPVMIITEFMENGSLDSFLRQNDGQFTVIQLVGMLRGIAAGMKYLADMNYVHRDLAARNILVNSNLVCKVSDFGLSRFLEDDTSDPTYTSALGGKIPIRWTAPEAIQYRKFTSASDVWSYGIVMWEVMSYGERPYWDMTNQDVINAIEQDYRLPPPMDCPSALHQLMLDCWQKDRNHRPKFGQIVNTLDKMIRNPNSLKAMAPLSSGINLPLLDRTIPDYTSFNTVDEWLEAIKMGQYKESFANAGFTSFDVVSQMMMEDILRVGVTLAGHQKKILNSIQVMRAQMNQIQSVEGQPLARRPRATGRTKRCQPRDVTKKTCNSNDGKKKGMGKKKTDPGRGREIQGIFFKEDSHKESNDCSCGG
# protocol description: phosphorylation enrichment, bacterial display (enrichment ratio); higher = better substrate or ligand; peptides without Tyr show the background;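 note: 11-residue human phosphosite peptides and single-mutation variants displayed on the E. coli surface, counted by deep sequencing, each peptide's frequency after selection divided by its frequency in the unselected input library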;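 note: frequency after pTyr selection over input frequency; kinase dosed for 20-30% of maximal phosphorylation in three min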
Hi there, I'd appreciate the recorded phosphorylation enrichment for every entry that follows.
Answers are plain numbers.

Here's what some known entries look like.
sequence: CTTIHYNFMFN [TP53_Y234_C238F_YF]
phosphorylation enrichment: 0.684
//
sequence: FISVGYVDGTQ [HLA-B_Y51_D54G]
phosphorylation enrichment: 0.401
//
sequence: GIVEDYRPPFF [ACVRL1_Y421_YF]
phosphorylation enrichment: 0.498
//
sequence: SFGENYDNSKS [MAN1B1_Y60]
phosphorylation enrichment: 0.461
//
sequence: PIPAAYNKFDQ [CDC73_Y290_R292K_YF]
phosphorylation enrichment: 1.39
//
sequence: LARDIYKNDYY [ROS1_Y2110]
phosphorylation enrichment: 0.782
//
sequence: QDLFLYQTHSE [PKHD1_Y255]
phosphorylation enrichment: 0.726
//
sequence: IATAIYSGDKI [UGGT2_Y823]
phosphorylation enrichment: 0.432

Hi! Can you tell me phosphorylation enrichment for each of these sequences?
1. APGDAYGDAGY [SYP_Y250]
2. FTAVGYHKHIT [NOMO1_Y1137]

1. 0.662
2. 0.414
